- Assay Info: Her2 expression decrease, cell viability multiplex – SKBR3 breast tumor cells, AlphaScreen, ATP viability, primary screen (AID 461);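 note: percent of carrier control wells set as 100% viability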
- Applied Conditions: SKBR3 Her2 protein level, 18-24 h, measured here: SKBR3 viability, ATP luminescence, at 10 µM
Assignment: determine reported viability for the given compounds.
Answer format: numeric, % implied, no suffix.

Q: Specify viability for Cc1c(C(=O)OC2CCC(C)CC2)[nH]c2c1C(=O)CCC2 (stereo unspecified) and stop.
Ans: 69.5

Q: Specify viability for O=C(CCn1c(=O)oc2ccccc21)NCCN1CCOCC1 and stop.
Ans: 104

Q: Specify viability for Cc1cc(C)n2nc(S(=O)(=O)N(C)c3ccccc3)nc2n1 and stop.
Ans: 103

Q: Specify viability for COc1ccc(S(=O)(=O)N(C)C2CCN(C)CC2)cc1 and stop.
Ans: 108

Q: Specify viability for CC1CCCCN1CCNC(=O)C1CCN(S(=O)(=O)c2cccc3cccnc23)CC1 (stereo unspecified) and stop.
Ans: 97

Q: Specify viability for CC(C)(C)SCCNC(=O)COc1ccc(Cl)cc1 and stop.
Ans: 94.5

Q: Specify viability for COc1cccc(C2C(C(N)=O)=C(C)Nc3nc(CCCO)nn32)c1OC (stereo unspecified) and stop.
Ans: 102

Q: Specify viability for CCOc1ccccc1C1CC(c2ccc(Br)cc2)Nc2nc(N)nn21 (stereo unspecified) and stop.
Ans: 91.5

Q: Specify viability for COc1cccc(NC(=O)c2nnn(Cc3ccc(Br)cc3F)c2N)c1 and stop.
Ans: 98

Q: Specify viability for Cc1cccc(CN2CCC(CNC(=O)C3CCCN(S(=O)(=O)c4cnc[nH]4)C3)CC2)c1 (stereo unspecified) and stop.
Ans: 98

Q: Specify viability for COc1cccc(NC(=O)c2nc3nc(C)cc(C(F)F)n3n2)c1 and stop.
Ans: 100

====

- Assay Info: doxorubicin toxicity protection in MRP-1 cells – H69AR cells, CellTiter-Glo, duplicate, MRP-1 activator project, pilot screen (AID 807);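 note: compound pretreatment 18-22 h then 72 h combined with doxorubicin; 0% = doxorubicin alone and 100% = vehicle without doxorubicin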
- Applied Conditions: H69AR viability with doxorubicin, CellTiter-Glo luminescence; at 10 µM; stronger effect = higher value
Value Type: viability increase (%)
Answer format: numeric, % implied, no suffix.

Q: Specify viability increase for CN(CC(=O)N1CCc2ccccc2C1)S(=O)(=O)c1ccc2c(c1)c(=O)n(C)c(=O)n2C and stop.
Ans: -3.24

Q: Specify viability increase for CCOC(=O)N1CCC(Nc2ccc3nnc(-c4ccccc4)n3n2)CC1 and stop.
Ans: -6.99

Q: Specify viability increase for CC(=O)NC(CCS(C)(=O)=O)C(=O)Nc1cccc(C)c1C (stereo not given) and stop.
Ans: 0.19

Q: Specify viability increase for CCOC(=O)C1=C(C)Nc2nnnn2C1c1ccc(OC)c(Br)c1 (stereo not given) and stop.
Ans: -2.62

Q: Specify viability increase for N#CCCN1CCN(S(=O)(=O)c2ccc(S(=O)(=O)NC3CCCC3)cc2)CC1 and stop.
Ans: -0.87

Q: Specify viability increase for Cc1ccc(C)c(N2CCN(C(=O)c3cc4ccccn4n3)CC2)c1 and stop.
Ans: -2.11

Q: Specify viability increase for CCCn1c(=O)c(C(=O)NCc2ccccn2)c(O)c2ccccc21 and stop.
Ans: 1.19

Q: Specify viability increase for COc1ccc(CNC(=O)c2ccc(CN3CCOCC3)cc2)cc1 and stop.
Ans: -0.28

Q: Specify viability increase for Cc1cc(C)c(C#N)c(SCC(=O)Nc2ccc(S(=O)(=O)Nc3onc(C)c3C)cc2)n1 and stop.
Ans: -0.72

Q: Specify viability increase for CC(=O)NC(CCS(C)(=O)=O)C(=O)Nc1cc(C)on1 (stereo not given) and stop.
Ans: 1

Q: Specify viability increase for COc1ccc(S(=O)(=O)NCC(c2cccnc2)N2CCN(C)CC2)cc1C (stereo not given) and stop.
Ans: -2.64

Q: Specify viability increase for COC(=O)C1=C(N)OC2=C(C(=O)CCC2)C1c1cccs1 (stereo not given) and stop.
Ans: -2.89

Q: Specify viability increase for COc1ccccc1N1CCN(C(=O)N2CCOCC2)CC1 and stop.
Ans: -1.74

Q: Specify viability increase for COc1cc(C2C(C(=O)Nc3ccc(F)cc3)=C(C)Nc3nc(CCCO)nn32)cc(OC)c1OC (stereo not given) and stop.
Ans: -1.09

Q: Specify viability increase for CC1CCN(C(=O)CSCC(=O)Nc2nc(-c3cccs3)cs2)CC1 and stop.
Ans: -4.14

Q: Specify viability increase for CC1=C(C(=O)OC(C)C)C(c2ccccn2)n2ncnc2N1 (stereo not given) and stop.
Ans: -0.55

Q: Specify viability increase for CCOC(=O)c1c(C)n(OCc2ccccc2)c2ccc3c(no[n+]3[O-])c12 and stop.
Ans: -3.24

Q: Specify viability increase for CCOC(=O)N1CCN(CC(=O)Nc2ccc(C)cc2)CC1 and stop.
Ans: -3.03

Q: Specify viability increase for CCCCNC(=O)Nc1ccnn1C1CCCCC1 and stop.
Ans: -1.77

Q: Specify viability increase for CCCCSc1nc(CCC)cc(=O)[nH]1 and stop.
Ans: -1.29

Q: Specify viability increase for COc1c(Cl)cc(-c2noc(C)c2C(=O)NC(C)C)cc1Cl and stop.
Ans: 0.34

Q: Specify viability increase for CN1CCN(c2cc3c(c4c2[nH]c2ccccc24)C(=O)CC(C)(C)C3)CC1 and stop.
Ans: -8.46

Q: Specify viability increase for Cc1ccc(-c2noc(COc3ccccc3C)n2)cc1 and stop.
Ans: 3.84

Q: Specify viability increase for CCCCC(=O)NCCc1cc2c(C)ccc(C)c2[nH]c1=O and stop.
Ans: 0.28

Q: Specify viability increase for COc1ccc(NC(=O)CN(c2cc(C)cc(C)c2)S(=O)(=O)c2c(C)noc2C)cc1OC and stop.
Ans: -2.49

Q: Specify viability increase for Cc1cccc(C2CC(c3ccc(Cl)cc3)Nc3nc(N)nn32)c1 (stereo not given) and stop.
Ans: 4.33

Q: Specify viability increase for O=C(C1CCN(c2nnc(-n3cccc3)s2)CC1)N1CCc2ccccc2C1 and stop.
Ans: -1.4

Q: Specify viability increase for Cc1oc(-c2cccc(Cl)c2)nc1CN1CCC(C(=O)NCCCN2CCCC2=O)CC1 and stop.
Ans: -3.95

Q: Specify viability increase for CCOC(=O)Cn1c(=O)oc2cc(S(=O)(=O)NCc3cccs3)ccc21 and stop.
Ans: -1.22

Q: Specify viability increase for C=CCn1c(SCc2cccc(C#N)c2)nnc1-c1ccccc1O and stop.
Ans: -4.01

Q: Specify viability increase for CCOc1ccccc1NC(=O)C1CCCN(S(=O)(=O)c2cccc3cccnc23)C1 (stereo not given) and stop.
Ans: -3.58

Q: Specify viability increase for O=C1CCCC2=C1C(c1cccs1)n1nc(SCc3ccccc3F)nc1N2 (stereo not given) and stop.
Ans: -5.19

Q: Specify viability increase for O/N=C1/CCc2cccc3cccc1c23 and stop.
Ans: -3.93

Q: Specify viability increase for CCCN(CCC)C(=O)CCS(=O)(=O)c1cccc2nsnc12 and stop.
Ans: -1.95

Q: Specify viability increase for Cc1nc2ccccc2c2oc(C(=O)N3CCc4ccccc4C3)cc12 and stop.
Ans: -3.07

Q: Specify viability increase for Cc1ccc(N2CCN(S(=O)(=O)N(C)C)CC2)c(C)c1 and stop.
Ans: 0.57

Q: Specify viability increase for CCOC(=O)c1ccc(NCc2nc3ccccc3[nH]2)cc1 and stop.
Ans: -5.9

Q: Specify viability increase for CSc1cccc(NS(=O)(=O)c2ccc3c(c2)oc(=O)n3C)c1 and stop.
Ans: -1.75

Q: Specify viability increase for Cn1cc(Cl)c(C(=O)N(Cc2ccccc2)c2ccccn2)n1 and stop.
Ans: -0.96

Q: Specify viability increase for c1ccc2c(c1)Cc1cc(CN3CCOCC3)ccc1-2 and stop.
Ans: 0.12

Q: Specify viability increase for CCN(CC)CCNC(=O)c1ccc(CS(=O)(=O)c2ccc(Br)cc2)o1 and stop.
Ans: -2.1

Q: Specify viability increase for Cc1nnc(SCCn2c(N(C)Cc3ccccc3)nc3c2c(=O)[nH]c(=O)n3C)s1 and stop.
Ans: -3.65

Q: Specify viability increase for O=C(OCCN(CCOC(=O)c1ccncc1)S(=O)(=O)c1cccs1)c1ccncc1 and stop.
Ans: -2.14

Q: Specify viability increase for CC(=O)Nc1ccc(N=Cc2ccc[nH]2)cc1 and stop.
Ans: -1.9

Q: Specify viability increase for CC(=O)Nc1cccc(NC(=O)c2ccco2)c1 and stop.
Ans: -4.18

====

Assignment: determine reported viability for the given molecules.
- Assay Info: Her2 expression decrease, cell viability multiplex – SKBR3 breast tumor cells, AlphaScreen, ATP viability, primary screen (AID 461);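 note: percent of carrier control wells set as 100% viability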
- Applied Conditions: SKBR3 Her2 protein level, 18-24 h, measured here: SKBR3 viability, ATP luminescence, at 10 µM
Answer format: numeric, % implied, no suffix.

Q: Specify viability for COC(=O)C1(C#N)C(c2ccccc2)C1(C(=O)OC)C(=O)OC (stereo unspecified) and stop.
Ans: 117

Q: Specify viability for Cc1nc2sc(C(c3cccs3)N3CCC(C(N)=O)CC3)c(O)n2n1 (stereo unspecified) and stop.
Ans: 92.5

Q: Specify viability for CCOc1cc(C2CC(=O)N3CN(C4CCCCC4)CSC3=C2C#N)ccc1O (stereo unspecified) and stop.
Ans: 85

Q: Specify viability for COc1cc(NC(=O)CN(c2cc(C)cc(C)c2)S(=O)(=O)c2c(C)noc2C)cc(OC)c1 and stop.
Ans: 88.5

Q: Specify viability for CCCCn1c(CN2CCN(c3ccc(F)cc3)CC2)nc2c1c(=O)n(C)c(=O)n2C and stop.
Ans: 98

Q: Specify viability for CCCn1cc(SCC(N)=O)c2ccccc21 and stop.
Ans: 86.5

Q: Specify viability for O=C(Nc1ccccc1)C1=C(O)CC(c2ccoc2)CC1=Nc1ccccc1 (stereo unspecified) and stop.
Ans: 93

Q: Specify viability for Cc1ccc(C(=O)NC(Cc2c[nH]c3ccccc23)C(=O)O)o1 (stereo unspecified) and stop.
Ans: 95.5

Q: Specify viability for CSc1cccc(NC(=O)C2CCN(S(=O)(=O)c3ccc(F)cc3)CC2)c1 and stop.
Ans: 77.5

Q: Specify viability for COc1ccc(OC)c(C2=NOC(C(=O)Nc3c(C)n(C)n(-c4ccccc4)c3=O)C2)c1 (stereo unspecified) and stop.
Ans: 88.5

Q: Specify viability for O=C(NCCC1=CCCCC1)C1CCN(S(=O)(=O)c2cccc3cccnc23)CC1 and stop.
Ans: 104

Q: Specify viability for CSCCC(N=CC1=C(O)CC(C)(C)CC1=O)C(=O)O (stereo unspecified) and stop.
Ans: 100

Q: Specify viability for CN(CCNS(=O)(=O)c1ccc2c(c1)oc(=O)n2C)Cc1ccccc1 and stop.
Ans: 86

Q: Specify viability for O=C(NC1CCCCCC1)c1c(F)c(F)c(F)c(F)c1F and stop.
Ans: 76.5

Q: Specify viability for COc1ccc(-c2nc(CS(=O)CC(=O)NCc3ccccn3)c(C)o2)cc1 (stereo unspecified) and stop.
Ans: 103

Q: Specify viability for COc1ccc(OC)c2[nH]c(=O)c(CCNC(=O)C(C)C)cc12 and stop.
Ans: 109

Q: Specify viability for O=c1oc2c3c4c(cc2cc1-c1nc2ccccc2[nH]1)CCCN4CCC3 and stop.
Ans: 79.5

Q: Specify viability for Cc1cc(C)c(C#N)c(SCC(=O)Nc2ccc(S(=O)(=O)Nc3onc(C)c3C)cc2)n1 and stop.
Ans: 90.5

Q: Specify viability for COc1ccc(-c2nc3c(n2O)CCC/C3=N\O)cc1 and stop.
Ans: 89.5

Q: Specify viability for Cn1cc(Cl)c(C(=O)NC2CCCC2)n1 and stop.
Ans: 83.5

Q: Specify viability for CC1Cc2nc(SCC(=O)Nc3nccs3)n(C)c(=O)c2S1 (stereo unspecified) and stop.
Ans: 90
